ENDPOINT: melting point

INSERT INTO results (smiles_repr, reported) VALUES
  ('CCS(=O)(=O)c1ccc(-c2cccc(F)c2)nc1-c1nnc(-c2cc(C(F)(F)F)ncn2)n1C', '201 to 203 °C'),
  ('CCSc1ccc(-c2ccc(C(F)(F)F)cc2)nc1-c1nnc(-c2cc(C(F)(F)F)ccn2)n1C', '174 to 175 °C'),
  ('CCSc1cc(SC(F)(F)F)cnc1-c1nnc(-c2cc(C(F)(F)F)ccn2)n1C', '94 to 95 °C'),
  ('CCS(=O)(=O)c1ccc(-n2cnc(C#N)n2)nc1-c1nnc(-c2cc(C(F)(F)F)ncn2)n1C', '242 to 244 °C');
